Protein deacetylase HDAC6 (Homo sapiens) data, read-out IC50
Sequence (Q9UBN7 whole entry): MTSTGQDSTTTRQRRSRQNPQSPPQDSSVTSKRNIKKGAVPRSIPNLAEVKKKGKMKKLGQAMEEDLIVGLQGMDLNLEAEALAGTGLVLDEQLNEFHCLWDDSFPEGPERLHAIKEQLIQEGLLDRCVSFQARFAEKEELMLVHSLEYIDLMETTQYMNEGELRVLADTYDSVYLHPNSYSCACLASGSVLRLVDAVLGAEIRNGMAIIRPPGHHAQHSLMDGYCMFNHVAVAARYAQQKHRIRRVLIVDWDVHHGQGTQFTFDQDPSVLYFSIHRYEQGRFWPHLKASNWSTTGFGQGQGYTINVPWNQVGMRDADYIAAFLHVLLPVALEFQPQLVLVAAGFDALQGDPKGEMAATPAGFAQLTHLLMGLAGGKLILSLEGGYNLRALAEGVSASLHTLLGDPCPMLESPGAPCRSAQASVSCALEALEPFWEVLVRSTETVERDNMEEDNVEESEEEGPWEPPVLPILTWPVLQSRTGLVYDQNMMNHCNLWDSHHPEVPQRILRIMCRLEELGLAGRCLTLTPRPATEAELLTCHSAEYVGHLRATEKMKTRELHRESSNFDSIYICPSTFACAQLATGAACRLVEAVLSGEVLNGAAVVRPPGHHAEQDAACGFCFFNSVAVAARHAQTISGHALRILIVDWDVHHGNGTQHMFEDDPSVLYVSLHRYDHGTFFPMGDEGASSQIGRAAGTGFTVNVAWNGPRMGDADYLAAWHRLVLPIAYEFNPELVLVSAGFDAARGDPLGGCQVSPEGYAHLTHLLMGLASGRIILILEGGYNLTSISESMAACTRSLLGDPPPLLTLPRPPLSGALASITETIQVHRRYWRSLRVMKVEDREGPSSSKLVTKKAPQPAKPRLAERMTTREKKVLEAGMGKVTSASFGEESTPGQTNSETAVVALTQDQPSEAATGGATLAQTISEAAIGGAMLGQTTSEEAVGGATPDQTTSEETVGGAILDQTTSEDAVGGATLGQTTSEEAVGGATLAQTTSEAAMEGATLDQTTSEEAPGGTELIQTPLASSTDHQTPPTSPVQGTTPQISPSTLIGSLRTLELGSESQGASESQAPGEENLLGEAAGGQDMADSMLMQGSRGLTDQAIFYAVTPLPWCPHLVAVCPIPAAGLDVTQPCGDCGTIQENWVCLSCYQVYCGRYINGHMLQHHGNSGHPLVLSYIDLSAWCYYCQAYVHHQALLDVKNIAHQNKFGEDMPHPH

Could you tell me which IC50 is on file for CCNC(=O)c1cc2c(-c3cc(C(C)(C)O)ccc3Oc3c(C)cc(F)cc3C)cn(C)c(=O)c2[nH]1 [ABBV-744] ?
> 10000 nM

Cc1sc2c(c1C)C(c1ccc(Cl)cc1)=N[C@@H](CC(=O)Nc1ccc(O)cc1)c1nnc(C)n1-2 [BIRABRESIB] , same question.
> 10000 nM

Ok, now Cn1cc(-c2ccccc2Oc2ccccc2)c2cc(C(=O)NCCCCCCC(=O)Nc3ccccc3N)[nH]c2c1=O
> 500 nM

Try this compound too: Cn1cc(-c2ccccc2Oc2ccccc2)c2cc(C(=O)NCCCCCC(=O)Nc3ccccc3N)[nH]c2c1=O
> 500 nM

Another compound to check: Cn1cc(-c2ccccc2Oc2ccccc2)c2cc(C(=O)NCc3ccc(C(=O)Nc4ccccc4N)cc3)[nH]c2c1=O
> 500 nM

###

- target of assay: Bromodomain-containing protein 4 (Homo sapiens, UniProt O60885)
- test summary: Inhibition of His-tagged BRD4 bromodomain 1 (unknown origin) using [Lys (5,8,12,16) Ac] H4(1-21) as substrate by fluorescence based assay
measurement type: log10(IC50) (log10 of the value in nM)
Note: values are log10 of IC50 expressed in nM.

Identify the measured log10(IC50) of Cc1ccccc1-c1cn(C)c(=O)c2[nH]c(C(=O)NCc3ccc(C(=O)Nc4ccccc4N)cc3)cc12 for Bromodomain-containing protein 4 (Homo sapiens, UniProt O60885).
2.07

And for Cn1cc(-c2ccccc2Oc2ccccc2)c2cc(C(=O)NCCCCCCC(=O)NO)[nH]c2c1=O ?
1.59

Note, next up: Cn1cc(-c2ccccc2)c2cc(C(=O)NCc3ccc(C(=O)Nc4ccccc4N)cc3)[nH]c2c1=O
1.68

Could you do the same for CC(C)Oc1ccc(C(C)(C)O)cc1-c1cn(C)c(=O)c2[nH]c(C(=O)NCc3ccc(C(=O)NO)cc3)cc12 , please?
1.50

Next: Cc1cc(F)cc(C)c1Oc1ccc(C(C)(C)O)cc1-c1cn(C)c(=O)c2[nH]c(C(=O)NCCCCCCC(=O)NO)cc12
2.57

Repeat with Cn1cc(-c2cc(C(C)(C)O)ccc2OC2CC2)c2cc(C(=O)NCc3ccc(C(=O)NO)cc3)[nH]c2c1=O
2.40

One more compound: Cc1cc(F)cc(C)c1Oc1ccc(C(C)(C)O)cc1-c1cn(C)c(=O)c2[nH]c(C(=O)NCc3ccc(C(=O)Nc4ccccc4N)cc3)cc12
2.36

Continue with COc1ccc(C(C)(C)O)cc1-c1cn(C)c(=O)c2[nH]c(C(=O)NCc3ccc(C(=O)Nc4ccccc4N)cc3)cc12
0.59

Another compound: Cc1cc(F)cc(C)c1Oc1ccc(C(C)(C)O)cc1-c1cn(C)c(=O)c2[nH]c(C(=O)NCc3ccc(C(=O)NO)cc3)cc12
2.48

How about Cn1cc(-c2ccc(Cl)cc2)c2cc(C(=O)NCc3ccc(C(=O)Nc4ccccc4N)cc3)[nH]c2c1=O ?
1.80

Another: Cn1cc(-c2cc(C(C)(C)O)ccc2OC2CC2)c2cc(C(=O)NCCCCCCC(=O)NO)[nH]c2c1=O
1.42

// repeat for Cn1cc(-c2cc(C(C)(C)O)ccc2Oc2ccc(F)cc2F)c2cc(C(=O)NCc3ccc(C(=O)NO)cc3)[nH]c2c1=O and report
1.88

Moving on to the next compound: Cn1cc(-c2cccc(Cl)c2)c2cc(C(=O)NCc3ccc(C(=O)Nc4ccccc4N)cc3)[nH]c2c1=O
1.82

Again, but for Cn1cc(-c2ccccc2Cl)c2cc(C(=O)NCc3ccc(C(=O)Nc4ccccc4N)cc3)[nH]c2c1=O
2.01
